Origin of values: ChEMBL document CHEMBL4706681

Target: Amine oxidase [flavin-containing] B (Homo sapiens, UniProt P27338)
Sequence (P27338 whole entry): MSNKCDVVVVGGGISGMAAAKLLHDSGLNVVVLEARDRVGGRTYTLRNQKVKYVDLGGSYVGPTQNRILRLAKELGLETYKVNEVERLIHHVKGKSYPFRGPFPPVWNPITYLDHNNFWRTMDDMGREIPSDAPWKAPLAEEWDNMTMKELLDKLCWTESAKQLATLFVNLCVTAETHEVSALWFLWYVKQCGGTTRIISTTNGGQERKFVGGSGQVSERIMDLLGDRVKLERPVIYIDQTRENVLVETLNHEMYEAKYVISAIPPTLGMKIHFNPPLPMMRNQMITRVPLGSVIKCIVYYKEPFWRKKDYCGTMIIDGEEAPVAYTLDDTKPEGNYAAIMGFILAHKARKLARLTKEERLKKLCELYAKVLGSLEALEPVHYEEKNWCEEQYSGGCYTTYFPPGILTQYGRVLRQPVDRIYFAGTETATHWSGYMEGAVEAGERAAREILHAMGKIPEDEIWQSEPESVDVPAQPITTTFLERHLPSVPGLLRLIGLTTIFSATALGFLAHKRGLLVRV
Assay: Inhibition of recombinant human MAO-B expressed in baculovirus infected BTI insect cells using p-tyramine as substrate incubated for 30 mins by Amplex red reagent based fluorescence analysis
pKi: −log10 of the molar value.
Observable: pKi

Compound | Test Target | Observed Measurement
Cc1ccc(C2CC(c3ccccc3)=NN2C(=O)Cn2c(=O)oc3ccccc32)cc1 (centres undefined) | Amine oxidase [flavin-containing] B (Homo sapiens, UniProt P27338) | 5.05
COc1ccc(C2=NN(C(=O)Cn3c(=O)oc4ccccc43)C(c3ccccc3Cl)C2)cc1 (centres undefined) | Amine oxidase [flavin-containing] B (Homo sapiens, UniProt P27338) | 5.90
COc1ccc(C(/C=C/c2ccccc2Cl)=N/NC(=O)Cn2c(=O)oc3ccccc32)cc1 | Amine oxidase [flavin-containing] B (Homo sapiens, UniProt P27338) | 4.46
COc1ccccc1C(/C=C/c1ccccc1Cl)=N/NC(=O)Cn1c(=O)oc2ccc(C)cc21 | Amine oxidase [flavin-containing] B (Homo sapiens, UniProt P27338) | 4.78
COc1ccc(C2=NN(C(=O)Cn3c(=O)oc4ccccc43)C(c3ccccc3)C2)cc1 (centres undefined) | Amine oxidase [flavin-containing] B (Homo sapiens, UniProt P27338) | 5.05
O=C(Cn1c(=O)oc2ccccc21)N/N=C(\C=C\c1ccccc1)c1ccccc1 | Amine oxidase [flavin-containing] B (Homo sapiens, UniProt P27338) | 4.72
Cc1ccc(C2=NN(C(=O)Cn3c(=O)oc4ccccc43)C(c3ccccc3)C2)cc1 (centres undefined) | Amine oxidase [flavin-containing] B (Homo sapiens, UniProt P27338) | 5.26
COc1cccc(C2CC(c3ccc(C)cc3)=NN2C(=O)Cn2c(=O)oc3ccc(Cl)cc32)c1OC (centres undefined) | Amine oxidase [flavin-containing] B (Homo sapiens, UniProt P27338) | 4.04
COc1ccccc1C(/C=C/c1ccccc1Cl)=N/NC(=O)Cn1c(=O)oc2ccc(Cl)cc21 | Amine oxidase [flavin-containing] B (Homo sapiens, UniProt P27338) | 5.03

====

Target: UniProt:P21397
Sequence (P21397 whole entry): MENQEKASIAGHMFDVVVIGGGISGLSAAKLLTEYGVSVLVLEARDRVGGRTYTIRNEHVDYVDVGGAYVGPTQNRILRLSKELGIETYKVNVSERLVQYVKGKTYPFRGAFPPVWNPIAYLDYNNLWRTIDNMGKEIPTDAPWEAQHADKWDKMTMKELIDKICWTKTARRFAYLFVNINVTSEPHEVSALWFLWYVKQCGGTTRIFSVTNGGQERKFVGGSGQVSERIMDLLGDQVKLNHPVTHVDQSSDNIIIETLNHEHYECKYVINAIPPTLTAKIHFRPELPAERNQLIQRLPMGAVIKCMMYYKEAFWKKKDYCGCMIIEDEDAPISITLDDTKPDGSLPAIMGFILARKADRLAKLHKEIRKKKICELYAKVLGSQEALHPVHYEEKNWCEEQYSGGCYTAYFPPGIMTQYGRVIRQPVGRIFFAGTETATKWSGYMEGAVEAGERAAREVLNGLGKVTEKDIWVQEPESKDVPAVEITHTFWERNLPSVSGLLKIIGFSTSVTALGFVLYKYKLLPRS
Experiment: Inhibition of recombinant human MAO-A expressed in baculovirus infected BTI insect cells using p-tyramine as substrate incubated for 30 mins by Amplex red reagent based fluorescence analysis
pKi: −log10 of the molar value.
Quick rule for you: pKi at 8 or higher means yes, lower means no.

Molecule | Class Label
COc1ccc(C2=NN(C(=O)Cn3c(=O)oc4ccc(Cl)cc43)C(c3cccc(OC)c3OC)C2)cc1 (configuration not stated) | no
COc1cccc(/C=C/C(=N\NC(=O)Cn2c(=O)oc3ccccc32)c2ccccc2)c1 | yes
COc1ccc(C(/C=C/c2ccccc2Cl)=N/NC(=O)Cn2c(=O)oc3ccccc32)cc1 | yes
COc1ccccc1C(/C=C/c1ccccc1Cl)=N/NC(=O)Cn1c(=O)oc2ccc(Cl)cc21 | yes
COc1cccc(C2CC(c3ccc(C)cc3)=NN2C(=O)Cn2c(=O)oc3ccc(C)cc32)c1OC (configuration not stated) | no
COc1cccc(C2=NN(C(=O)Cn3c(=O)oc4ccc(Cl)cc43)C(c3ccccc3Cl)C2)c1 (configuration not stated) | no
Cc1ccc(C2=NN(C(=O)Cn3c(=O)oc4ccc(C)cc43)C(c3ccccc3)C2)cc1 (configuration not stated) | no
NCCNC(=O)c1ccc(Cl)cn1 [LAZABEMIDE] | no

====

Assay: Cytotoxicity against human HepG2 cells assessed as cell viability at 30 uM incubated for 2 hrs by MTT assay relative to control
Format: cell-based
Details: read-out: Activity
The entries below are paired with their reported viability at 2 h, 30 µM.
Observable: viability at 2 h, 30 µM (%)

Molecule | Observable | Observed Measurement
COc1ccc(C2=NN(C(=O)Cn3c(=O)oc4ccc(C)cc43)C(c3cccc(OC)c3OC)C2)cc1 (stereo not given) | viability at 2 h, 30 µM | 84.9
COc1ccc(C(/C=C/c2cccc(OC)c2OC)=N/NC(=O)Cn2c(=O)oc3ccc(Cl)cc32)cc1 | viability at 2 h, 30 µM | 88.5
COc1ccc(C2CC(c3ccccc3)=NN2C(=O)Cn2c(=O)oc3ccccc32)cc1OC (stereo not given) | viability at 2 h, 30 µM | 85.3
C#CCN(C)[C@H](C)Cc1ccccc1 | viability at 2 h, 30 µM | 84
COc1ccc(C2=NN(C(=O)Cn3c(=O)oc4ccccc43)C(c3ccccc3Cl)C2)cc1 (stereo not given) | viability at 2 h, 30 µM | 85
O=C(NCCN1CCOCC1)c1ccc(Cl)cc1 [MOCLOBEMIDE] | viability at 2 h, 30 µM | 86
COc1ccccc1/C=C/C(=N\NC(=O)Cn1c(=O)oc2ccc(Cl)cc21)c1ccccc1 | viability at 2 h, 30 µM | 87.7
NCCNC(=O)c1ccc(Cl)cn1 [LAZABEMIDE] | viability at 2 h, 30 µM | 85.6
COc1cccc(C2CC(c3ccccc3)=NN2C(=O)Cn2c(=O)oc3ccccc32)c1 (stereo not given) | viability at 2 h, 30 µM | 77.3
COc1ccccc1C(/C=C/c1ccccc1Cl)=N/NC(=O)Cn1c(=O)oc2ccc(Cl)cc21 | viability at 2 h, 30 µM | 87.4
